# Test system: Noggin (protein binding on small-molecule microarray)
# ASSAY: Noggin binders on small-molecule microarray, primary screen, biochemical, 635/667 nm fluorescence (AID 1095);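 further: score merges 667 nm feature fluorescence with signal to noise over triplicate slides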
# SETUP_CONDITIONS: 635 nm fluorescence, higher = more signal
I'd appreciate it if you could label each record using composite z-score and these ranges: lowest: < 0.2; middle: ≥ 0.2 and < 1; highest: ≥ 1

Example entries begin here.
C=CCC(OC(C)=O)[C@@H]1[C@@H](N(Cc2cc3ccccc3o2)C(=O)c2ccc(C)cc2)c2cc(OCCCO)ccc2N1C(=O)c1ccc2ccccc2n1 (some centres undefined)	lowest
CCCC[C@@H]1C[C@H]1[C@@H](NC(=O)c1ccccc1)c1ccccc1C(F)(F)F	lowest
C[C@@H]1CC[C@H]2C(=O)N3CCC[C@H]3C(=O)N2[C@H]1c1ccc(Br)cc1	middle
CN(C)C(=O)[C@@]1(Cc2ccccc2N=[N+]=[N-])N=C(c2ccc(OCCCO)cc2)O[C@H]1c1ccccc1CN=[N+]=[N-]	highest
CO[C@H]1COC(=O)[C@H](C)COC(=O)[C@H](Cc2ccccc2)NC(=O)CC=C[C@H]1C	middle
[N-]=[N+]=NCc1ccccc1C[C@]1(C(N)=O)N=C(c2ccc(OCCCO)cc2)O[C@H]1c1ccccc1CN=[N+]=[N-]	lowest
NC(=O)NCC#Cc1ccc2c(c1)[C@]1(C(=O)N2)[C@H](c2ccccc2OCCO)N2[C@H](c3ccccc3)[C@H](c3ccccc3)OC(=O)[C@H]2[C@@H]1C(=O)N1CCN(c2ncccn2)CC1	highest
N#Cc1ccc(NN2C(C(O)CCc3ccccc3)C=CC3C(=O)N(c4ccccc4)C(=O)C32)cc1 (centres undefined)	lowest
COCCOC(=O)N1C(=O)[C@@]2(c3cc(C#CCNC(N)=O)ccc31)[C@H](c1ccc(OCCO)cc1)N1[C@H](c3ccccc3)[C@H](c3ccccc3)OC(=O)[C@H]1[C@@H]2C(=O)Nc1nc2ccccc2s1	middle
O=C(CS)NCCCCCCNC(=O)[C@@H]1C[C@@H]2C(=O)N[C@@H](Cc3ccccc3)C(=O)N2[C@@H]1c1ccc(O)cc1	middle

Problem: Where would O=C1O[C@H](c2ccccc2)[C@H](c2ccccc2)N2[C@H]1[C@@H](C(=O)Nc1nc3ccccc3s1)[C@]1(C(=O)Nc3ccc(C#CC4=CCCCC4)cc31)[C@H]2c1ccccc1OCCO land among the classes by reported composite z-score?
Result: highest

Problem: Where would CN1C(=O)C2C=CC(C(O)C3CC=CCC3)N(Nc3ccccc3)C2C1=O (centres undefined) land among the classes by reported composite z-score?
Result: middle

Problem: Where would CC(=O)NCCCC[C@@H]1NC(=O)[C@H]2C[C@@H](C(=O)NCCCCCCN(C)C)[C@@H](c3ccc(O)cc3)N2C1=O land among the classes by reported composite z-score?
Result: highest

---

# ASSAY: CREB reporter modulators without forskolin, primary screen, cell-based, PC12, CRE-LacZ reporter, unstimulated (AID 1145)
# SETUP_CONDITIONS: no forskolin, luminescence, 4.5 h, higher = more signal, called active from +8 up or from −8 down
# label = YES if z-score >= -0.1 else NO

O=[N+]([O-])c1ccc(C[n+]2ccc3ccc(O)cc3c2)o1	NO

Problem: Reported z-score at or above -0.1? C=CCC(OC(C)=O)[C@@H]1[C@@H](N(Cc2cc3ccccc3o2)C(=O)Cc2ccc(F)cc2)c2cc(OCCCO)ccc2N1C(=O)c1ccc(-c2ccccc2)cc1 (stereo partly drawn)
Result: YES

Problem: Reported z-score at or above -0.1? CO[C@H]1COC(=O)CC=C[C@H](C)[C@@H](OC)COC(=O)[C@H](Cc2ccccc2)NC(=O)CC=C[C@@H]1C
Result: YES

Problem: Reported z-score at or above -0.1? C=CC[C@@]1(C(=O)NCC(O)CO)N=C(c2ccc(OCCCO)cc2)O[C@@H]1c1ccccc1CN=[N+]=[N-] (stereo partly drawn)
Result: NO
